Listing: apparent KD of MS2 coat protein of selected sequences
- Tested on: MS2 coat protein
- ASSAY: apparent KD of MS2 coat protein; higher = weaker reporter binding
- MEASUREMENT_PARAMETERS: Eterna round: R107; input ligand: arginine 13.2 mM
The answer is to be given in nM; state only the numeric part.

The following sequences have reported results that may help.
# MONOMER_SEQUENCE, apparent KD of MS2 coat protein, nM
rows = [
    ("UUCAGACAUGAGGAUCACCCAUGUACUGAAGGAGCGGAUAAAUAUCCAGGUAGGUCGCAGUAUUGAGGGUCUACUUCCAGUCUUA [Rexeesqu]", 11.7),
    ("GAAGGAACCGGAAGGAGCGGGUCCUUAGCCACUACAUGAGGAUCACCCAUGUCCGGGAGGUCCCAGGUAGGUCGCCGGUCUUAAA [Gelece]", 63.9),
    ("AAUACCGGAUCGGCCGCCACUGGUUGGCCCUGUGUACAUGAGGAUCACCCAUGUCCAUCCCAGACCAGGACCGGGAUCUUUGUGU [Ingeraza]", 15.6),
]

[ask] Given the sequence UGGUGUAGGGUAAAUAGGAUUAGUACAGAAGGAGCGCGAAUAAACGCAGGUAGGUCGCUGGAAUACAUGAGGAUCACCCAUGUUC [Same State Arginine A GF 25] , what is its reported apparent KD of MS2 coat protein?
[reply] 22.6

[ask] Given the sequence ACGUCCAGGUUAAUCGUGGACAUGGUCGAUACCAGUAUUUUAAUCUACCCUUGGCAGCGACAUGAGGAUCACCCAUGUGCGAUGA [XTheo A #15] , what is its reported apparent KD of MS2 coat protein?
[reply] 11.7

[ask] Given the sequence UUGACAUGAGGAUCACCCAUGUUAGCUGAAGGAGCGAGGUAGUACUCAGGUAGGUCGCAGAGAGCAGAGUUAGUUGUUCUCAUGU [X-ArgiA-ms2@4] , what is its reported apparent KD of MS2 coat protein?
[reply] 21.5

---

Listing: apparent KD of MS2 coat protein of selected sequences
- Test system: MS2 coat protein
- ASSAY: apparent KD of MS2 coat protein; higher = weaker reporter binding
- MEASUREMENT_PARAMETERS: Eterna round: R107; input ligand: theophylline 20 uM
The answer is to be given in nM; state only the numeric part.

The following sequences have reported results that may help.
# MONOMER_SEQUENCE, UNIT_TAG, MEASURED_RESULT
measured = [
    ("GGGAGGGAGGCGGCCGCCACUGAUUUUCAUAUAUAUAUAACAUGAGGAUCACCCAUGUAGAUAUACAGGACCGGGCCUUUUUUUU [aaaG]", "nM", 33.8),
    ("AAUGAGUGGUGGUCAAACAUGGGUGAUCAACGAGGACCGGUACGGCCGCCACUCGAUAACAUGAGGAUCACCCAUGUAAUAAUAA [|T'-M'-Trp-Ms2|_Design9]", "nM", 492),
]

Next:
[ask] Given the sequence ACAUGAGGAUCACCCAUGUGGCGUCUUGAUACCAGACGAGAAGUAGUCCCUUGGCAGCAAAUACAUGAGGAUCACCCAUGUAGGA [cccmullin] , what is its reported apparent KD of MS2 coat protein?
[reply] 25.5

---

- Test system: MS2 coat protein
- ASSAY: apparent KD of MS2 coat protein; higher = weaker reporter binding
- MEASUREMENT_PARAMETERS: Eterna round: R107; input ligand: none
Decide using apparent KD of MS2 coat protein: a value greater than or equal to 50 nM is yes (1), a smaller one is no (0).

Consider the following illustrative entries.
# MONOMER_SEQUENCE, ASSIGNED_LABEL
records = [
    ("UCGUGUGUUUCGGAUACCAGUGAAAUCGAUACAUGAGGAUCACCCAUGUGAGAGGAUGUACACCCUUGGCAGCUGUCUGUAUCGG [asczmullin]", "yes (1)"),
    ("GGACUAACCAGAAGGAGCGGCACGCAGAAACUGCAAAUUCCUCCGCACGAGGAUCACCCGUGUCAGGUAGGUCGCUGGUUAGUCG [ArgBX 28]", "no (0)"),
    ("GUCCGCAGCCGAAGGAGCGCUAGAAGGUGACAUGAGGAUCACCCAUGUGUGUGAUGUGGCUAGCAGGUAGGUCGCGGAGCGGAUU [Exclusion - Arginine B (Freestyle 18)]", "yes (1)"),
    ("AGCUCGCAUCCUCUAGCGUCAAAGACGCCUCGAGGACCGGUACGGCCGCCACUCGAUAUGAGGAUCACCCAUAUCAAAGCGAGCA [TrypAX 2 #SwitchBubble #AlternativeMS2 #MS2Late #CuTurnoff]", "yes (1)"),
    ("UGUAUGGACUGAAGGAGCGGUUGAUAACAUGAGCAUCAGCCAUGUAAUAAGGCGAAAGCCAACCAGGUAGGUCGCAGUCCAUACU", "no (0)"),
]

[ask] Given GGUUGGUGUAGAGAUAUAUUGAUUACUGAAGGAGCGGGAACAAACCCAGGUAGGUCGCAGAGAUCCACAUGAGGAUCACCCAUGU [!0.N] , state whether its apparent KD of MS2 coat protein is at least 50 nM.
[reply] no (0)

[ask] Given AAACAUGAGGAUCACCCAUGUGGAACCGAAGGAGCGGCGCACAUGCCAGGUAGGUCGCGGGACAUGAGGACAUGAGGAUCACCCA [Same State Arginine A 3] , state whether its apparent KD of MS2 coat protein is at least 50 nM.
[reply] yes (1)

[ask] Given "UGCCGAGACGUGGAUUACCCGUGUACCGAAGGAGCGCCCGAAAGGGCAGGUAGGUCGCGGAGGACAUGAGGAUCACCCAUGUUGA" , state whether its apparent KD of MS2 coat protein is at least 50 nM.
[reply] yes (1)

[ask] Given CUCAUCCACGCGGCCGCCACUAUAUUGUGGUGUGGGUGUGACGUAUUACAUGAGGAUCACCCAUGUAGGACCGGGCGUGGAUGAG [Stork] , state whether its apparent KD of MS2 coat protein is at least 50 nM.
[reply] yes (1)

[ask] Given "UGUAUGUGAUCUGAUACCAGCGUUGAUAACCUGAGGAUCACCCUGGUAAAGGCGAAAGCCCGCCCUUGGCAGCAGAUCGCAUACU" , state whether its apparent KD of MS2 coat protein is at least 50 nM.
[reply] yes (1)

[ask] Given "UGUAUGUGAUCUGAUACCAGAGUGACGCGAAAGCGAACCUGAGGAUCACCCUGGUAAUAACUCCCUUGGCAGCAGAUCGCAUACU" , state whether its apparent KD of MS2 coat protein is at least 50 nM.
[reply] yes (1)

[ask] Given UAUCCACAUGAGGAUCACCCAUGUAGGGAAGGAGCGGUGGUUUCACCAGGUAGGUCGCCUUACUGAGGAGAACCGGUGGAAUCGU [Exclusion - Arginine A (Freestyle 29)] , state whether its apparent KD of MS2 coat protein is at least 50 nM.
[reply] no (0)

[ask] Given CAGUCAGUCAGUCAAUGAGUGAGGCAUGAAGGAGCGUGGGAAACCACAGGUAGGUCGCAUGCGAAACAUGAGGAUCACCCAUGUU [SSArg A #3] , state whether its apparent KD of MS2 coat protein is at least 50 nM.
[reply] no (0)

[ask] Given UGGCAAGAGGGAAGGAGCGUCAGCUGAGUCACAUGAGGAUCACCCAUGUCGCACAUAGUGUGACAGGUAGGUCGCCCUCUACCCU [Rearian] , state whether its apparent KD of MS2 coat protein is at least 50 nM.
[reply] yes (1)

[ask] Given "GGAUAGGACACGGCCGCCACUACCUAGGAUACUAGCAACAUUUGGGUACACGAGGAUCACCCGUGUAGGACCGGGUGUCCUAUCG" , state whether its apparent KD of MS2 coat protein is at least 50 nM.
[reply] no (0)

[ask] Given GCACCAGGUACGGAUACCAGACAUUGCCGUUAGGGUGAACAUGAGGAUCACCCAUGUUUUGUCCCUUGGCAGCCGUACCUGGUGC [ETB NP+V+V2 #7 Same Structure] , state whether its apparent KD of MS2 coat protein is at least 50 nM.
[reply] no (0)

---

Listing: apparent KD of MS2 coat protein of selected sequences
- Tested on: MS2 coat protein
- ASSAY: apparent KD of MS2 coat protein; designed switch direction (-1 OFF switch, 1 ON switch): -1; higher = weaker reporter binding
- MEASUREMENT_PARAMETERS: Eterna round: R95; input ligand: FMN 200 uM
The answer is to be given in nM; state only the numeric part.

# MONOMER_SEQUENCE, apparent KD of MS2 coat protein, nM
records = [
    ("UUUAAUUUUUUUUUUUUACAAGCUUUUUGCUCGUCUUAUACAUGAGGAUCACCCAUGUGGAUGGAGGGUAAAUUAUC [JMF 85] (puzzle: Sensor v3, turn-off variant 2)", 14.4),
    ("CUUAGACAUGAGGAUCACCCAUGUGAGGAUAUGAUGAGGAUAAGGAAGGAAGAAGGAAUCAGAAGGCACAUAUG [Mat - Mod of Hyphema D27] (puzzle: Exclusion 1)", 102),
]

Next:
[ask] # query: apparent KD of MS2 coat protein | item AAGAAACAUGAGGAUCACCCAUGUGAGGAUAUGAGUAAGAAAAGAAAAGAAAGAAGAAUCAGAAGGCACAAAGG [salish99-ex1_r3_048] (puzzle: Exclusion 1) | system: MS2 coat protein
[reply] 55.2
